Recorded melting point, one value per entry.

Past entries and their recorded results:
molecule="Cc1ncc(C(O)c2ccc(-c3noc(C(F)(F)F)n3)cc2)s1 (stereo not shown)" measured_value="104 to 108 °C"
molecule=CCOC(=O)c1cnc(C(=O)c2ccc(-c3noc(C(F)(F)F)n3)cc2)nc1C measured_value="92 to 93 °C"
molecule="C=CCC(O)c1ccc(-c2noc(C(F)(F)F)n2)cc1 (stereo not shown)" measured_value="45 to 48 °C"

For record `Cc1ccnc(C(=O)c2ccc(-c3noc(C(F)(F)F)n3)cc2)c1` the listed melting point is 76 to 81 °C

* * *

Recorded melting point, one value per entry.

Past entries and their recorded results:
compound="Cc1ccsc1C(O)c1ccc(-c2noc(C(F)(F)F)n2)cc1 (stereo not drawn)" measured_value="68 to 73 °C"
compound=O=C(c1ccc(OC(F)(F)F)cc1)c1ccc(-c2noc(C(F)(F)F)n2)cc1 measured_value="104 to 107 °C"

For record OC(c1ccc(-c2noc(C(F)(F)F)n2)cc1)C1CC1 (stereo not drawn) the listed melting point is 69 to 73 °C

For record `O=C(c1ccccc1)c1ccc(-c2noc(C(F)(F)F)n2)cc1` the listed melting point is 110 to 115 °C

For record `Cc1ncc(C(=O)c2ccc(-c3noc(C(F)(F)F)n3)cc2)s1` the listed melting point is 116 to 120 °C

For record COc1ccc(C(O)c2ccc(-c3noc(C(F)(F)F)n3)cc2)cc1 (stereo not drawn) the listed melting point is 67 to 70 °C

* * *

system: Glomerella lacenarium (Colletotrichum lacenarium); assay: Glomerella lacenarium (Colletotrichum lacenarium) liquid culture / cucumber / preventative (anthracnose); assay type: cell-based; settings: 20 ppm in the applied formulation, growth inhibition measured photometrically, compared to untreated control, read-out: disease control
Parameter measured: inhibition of growth at 20 ppm

Past entries and their recorded results:
compound=O=C(c1ccc(-c2noc(C(F)(F)F)n2)cc1)c1cccc(OC(F)F)c1 parameter_measured="inhibition of growth at 20 ppm" measured_value="≥ 80%"
compound=C=CCC(=O)c1ccc(-c2noc(C(F)(F)F)n2)cc1 parameter_measured="inhibition of growth at 20 ppm" measured_value="≥ 80%"
compound=CCn1cc(C(=O)c2ccc(-c3noc(C(F)(F)F)n3)cc2)cn1 parameter_measured="inhibition of growth at 20 ppm" measured_value="≥ 80%"
compound=Cc1ccc(C(=O)c2ccc(-c3noc(C(F)(F)F)n3)cc2)nc1 parameter_measured="inhibition of growth at 20 ppm" measured_value="≥ 80%"
compound="C/C=C/CC(O)c1ccc(-c2noc(C(F)(F)F)n2)cc1 (stereo not drawn)" parameter_measured="inhibition of growth at 20 ppm" measured_value="≥ 80%"

Entry `COc1ccc(C(=O)c2ccc(-c3noc(C(F)(F)F)n3)cc2)cn1` under Glomerella lacenarium (Colletotrichum lacenarium) had inhibition of growth at 20 ppm of ≥ 80%

Entry OC(c1ccc(-c2noc(C(F)(F)F)n2)cc1)c1cscn1 (stereo not drawn) under Glomerella lacenarium (Colletotrichum lacenarium) had inhibition of growth at 20 ppm of ≥ 80%

Entry `CCOC(=O)c1cnc(C(=O)c2ccc(-c3noc(C(F)(F)F)n3)cc2)nc1C` under Glomerella lacenarium (Colletotrichum lacenarium) had inhibition of growth at 20 ppm of ≥ 80%

Entry `O=C(c1ccc(-c2noc(C(F)(F)F)n2)cc1)c1ccno1` under Glomerella lacenarium (Colletotrichum lacenarium) had inhibition of growth at 20 ppm of ≥ 80%

* * *

Recorded melting point, one value per entry.

molecule=Cc1cncc(C(=O)c2ccc(-c3noc(C(F)(F)F)n3)cc2)c1 measured_value="80 to 84 °C"
molecule=C=CCC(=O)c1ccc(-c2noc(C(F)(F)F)n2)cc1 measured_value="65 to 69 °C"
molecule=CC(=O)c1ccc(-c2noc(C(F)(F)F)n2)cc1 measured_value="105 to 115 °C"
molecule=CCn1cc(C(=O)c2ccc(-c3noc(C(F)(F)F)n3)cc2)cn1 measured_value="80 to 86 °C"
molecule=O=C(c1ccc(-c2noc(C(F)(F)F)n2)cc1)c1ncc(C(F)(F)F)s1 measured_value="90 to 94 °C"

For record `O=C(c1ccc(-c2noc(C(F)(F)F)n2)cc1)C1CC1` the listed melting point is 58 to 62 °C

For record `CCOC(=O)c1cnn(CC(=O)c2ccc(-c3noc(C(F)(F)F)n3)cc2)c1` the listed melting point is 153.6 to 156.1 °C

For record `CC#CC(=O)c1ccc(-c2noc(C(F)(F)F)n2)cc1` the listed melting point is 84 to 87 °C

For record `O=C(c1ccc(-c2noc(C(F)(F)F)n2)cc1)c1cnc(C(F)(F)F)s1` the listed melting point is 126 to 132 °C

For record `O=C(c1ccc(F)cc1)c1ccc(-c2noc(C(F)(F)F)n2)cc1` the listed melting point is 125 to 135 °C

For record N#CC(O)c1ccc(-c2noc(C(F)(F)F)n2)cc1 (stereo not drawn) the listed melting point is 79 to 80 °C

* * *

Parameter measured: melting point

Past entries and their recorded results:
compound="OC(c1ccc(OC(F)(F)F)cc1)c1ccc(-c2noc(C(F)(F)F)n2)cc1 (stereo not drawn)" parameter_measured="melting point" measured_value="90 to 93 °C"
compound=O=C(c1ccc(-c2noc(C(F)(F)F)n2)cc1)c1nccs1 parameter_measured="melting point" measured_value="84 to 90 °C"

For record CC(C)(C)C(O)c1ccc(-c2noc(C(F)(F)F)n2)cc1 (stereo not drawn) the listed melting point is 60 to 75 °C

* * *

Parameter measured: melting point

Past entries and their recorded results:
compound=O=C(c1ccc(-c2noc(C(F)(F)F)n2)cc1)c1ccccn1 measured_value="66 to 70 °C"
compound="CC#CC(O)c1ccc(-c2noc(C(F)(F)F)n2)cc1 (stereo not shown)" measured_value="93 to 96 °C"
compound=O=C(c1ccc(-c2noc(C(F)(F)F)n2)cc1)c1cscn1 measured_value="68 to 74 °C"
compound="Cc1nc(C(O)c2ccc(-c3noc(C(F)(F)F)n3)cc2)cs1 (stereo not shown)" measured_value="95 to 99 °C"
compound=CCOC(=O)c1csc(C(=O)c2ccc(-c3noc(C(F)(F)F)n3)cc2)n1 measured_value="78 to 82 °C"
compound=O=C(c1ccc(-c2noc(C(F)(F)F)n2)cc1)c1cccc(OC(F)F)c1 measured_value="85 to 88 °C"

Shift focus to the following entry.
For record `O=C(c1ccc(-c2noc(C(F)(F)F)n2)cc1)c1cnn(C(F)(F)F)c1` the listed melting point is 98 to 102 °C

* * *

Parameter measured: melting point

Past entries and their recorded results:
compound="OC(c1ccccc1)c1ccc(-c2noc(C(F)(F)F)n2)cc1 (stereo not drawn)" parameter_measured="melting point" measured_value="63 to 69 °C"
compound=CCOC(=O)c1cc(C(=O)c2ccc(-c3noc(C(F)(F)F)n3)cc2)on1 parameter_measured="melting point" measured_value="197 to 200 °C"
compound="Cc1cc(C(O)c2ccc(-c3noc(C(F)(F)F)n3)cc2)on1 (stereo not drawn)" parameter_measured="melting point" measured_value="84 to 90 °C"
compound=O=C(c1ccc(-c2noc(C(F)(F)F)n2)cc1)c1ccno1 parameter_measured="melting point" measured_value="112 to 118 °C"
compound=O=C(c1ccc(-c2noc(C(F)(F)F)n2)cc1)c1ccc(F)cc1F parameter_measured="melting point" measured_value="92 to 95 °C"

For record `CCCCC(=O)c1ccc(-c2noc(C(F)(F)F)n2)cc1` the listed melting point is 57 to 61 °C

For record OC(c1ccc(-c2noc(C(F)(F)F)n2)cc1)c1cscn1 (stereo not drawn) the listed melting point is 56 to 60 °C

For record CCC(O)c1ccc(-c2noc(C(F)(F)F)n2)cc1 (stereo not drawn) the listed melting point is 66 to 68 °C

For record `COc1ccc(C(=O)c2ccc(-c3noc(C(F)(F)F)n3)cc2)nc1` the listed melting point is 65 to 73 °C

For record CCOC(=O)c1csc(C(O)c2ccc(-c3noc(C(F)(F)F)n3)cc2)n1 (stereo not drawn) the listed melting point is 118 to 122 °C

For record `N#Cc1ccc(C(=O)c2ccc(-c3noc(C(F)(F)F)n3)nc2)cc1` the listed melting point is 142 to 146 °C

For record `COc1ccc(C(=O)c2ccc(-c3noc(C(F)(F)F)n3)cc2)cn1` the listed melting point is 105 to 110 °C
